- target-of-assay: SF3b complexes (Homo sapiens, UniProt O75533+Q7RTV0)
- Construct: endogenous in cells; host or cells: Nuclear extracts; A HeLa S3 extract preparation is described for the in vitro splicing assay
- test-summary: Scintillation proximity assay (SPA) with [3H]-labelled pladienolide probe
- Assay type: binding
- run-conditions: SF3B1 (WT); geometric mean; read-out: SPA-ATS GMean IC50 (nM) SF3B1 (WT)
Threshold check on IC50: strictly below 4 nM is Y; on or above 4 nM is N.

- compound: "CCN(c1cc(F)cc(/C=C(\\C)[C@H]2OC(=O)C[C@H](O)CC[C@H](C)[C@@H](OC(=O)N3CCN(C)CC3)/C=C/[C@@H]2C)c1)C1CCN(S(C)(=O)=O)CC1"
  category-label: "N"
- compound: "C/C(=C\\c1cc(F)c2nnn(C3CCN(S(C)(=O)=O)CC3)c2c1)[C@H]1OC(=O)C[C@H](O)CC[C@H](C)[C@@H](OC(=O)N2CCN(C)CC2)/C=C/[C@@H]1C"
  category-label: "Y"
- compound: "C/C(=C\\c1cc(F)cc(N2CCN(C(=O)CN3CCOCC3)CC2)c1)[C@H]1OC(=O)C[C@H](O)CC[C@H](C)[C@@H](OC(=O)N2CCN(C)CC2)/C=C/[C@@H]1C"
  category-label: "N"
- compound: "C/C(=C\\c1cccc(S(=O)(=O)N2CCN(C=O)CC2)c1)[C@H]1OC(=O)C[C@H](O)CC[C@H](C)[C@@H](OC(=O)N2CCN(C)CC2)/C=C/[C@@H]1C"
  category-label: "N"
- compound: "C/C(=C\\c1cccc(COC(=O)N2CC[C@@H](F)C2)c1)[C@H]1OC(=O)C[C@H](O)CC[C@H](C)[C@@H](OC(=O)N2CCN(C)CC2)/C=C/[C@@H]1C (single isomer, unassigned) [Compound 256]"
  category-label: "N"
- compound: "C/C(=C\\c1cc(F)cc(N2CCN(CC(F)(F)F)CC2)c1)[C@H]1OC(=O)C[C@H](O)CC[C@H](C)[C@@H](OC(=O)N2CCN(C)CC2)/C=C/[C@@H]1C"
  category-label: "N"
- compound: "C/C(=C\\c1cc(F)c2cnn(C3CCOCC3)c2c1)[C@H]1OC(=O)C[C@H](O)CC[C@H](C)[C@@H](OC(=O)N2CCN(C)CC2)/C=C/[C@@H]1C"
  category-label: "N"
- compound: "CCCNC(=O)N1CCC(N(C)c2cc(F)cc(/C=C(\\C)[C@H]3OC(=O)C[C@H](O)CC[C@H](C)[C@@H](OC(=O)N4CCN(C)CC4)/C=C/[C@@H]3C)c2)CC1"
  category-label: "Y"
- compound: "C/C(=C\\c1cc(F)cc(N2CCN(C(=O)CO)CC2)c1)[C@H]1OC(=O)C[C@H](O)CC[C@H](C)[C@@H](OC(=O)N2CCN(C)CC2)/C=C/[C@@H]1C"
  category-label: "Y"
